Reference for the values: PubChem BioAssay (NCI)

experiment: NCI Yeast Anticancer Drug Screen. Data for the bub3 strain (AID 167); conditions: S. cerevisiae bub3 mutant strain, at 50.0 µM (retest, dose inferred, filed as 5.0), hits give high values
This is part of a sample that, as a whole, favours compounds with a hit. Of some 79,000 tested, about 15% had one in any assay.

COMPOUND	MEASURE_UNIT	growth inhibition
O=C(O)C1CCCCC1c1c2ccc(=O)c(O)c-2oc2c(O)c(O)ccc12 (stereo not drawn)	%	80
COc1cc(C2SCC(=O)N2c2nnc(C(F)(F)F)s2)cc(OC)c1OC (stereo not drawn)	%	50
N#Cc1c(N)[nH]c2ccc(Sc3ccccc3)cc12	%	51
